- system: D(2) dopamine receptor (Homo sapiens, UniProt P14416)
- Sequence (P14416 whole entry): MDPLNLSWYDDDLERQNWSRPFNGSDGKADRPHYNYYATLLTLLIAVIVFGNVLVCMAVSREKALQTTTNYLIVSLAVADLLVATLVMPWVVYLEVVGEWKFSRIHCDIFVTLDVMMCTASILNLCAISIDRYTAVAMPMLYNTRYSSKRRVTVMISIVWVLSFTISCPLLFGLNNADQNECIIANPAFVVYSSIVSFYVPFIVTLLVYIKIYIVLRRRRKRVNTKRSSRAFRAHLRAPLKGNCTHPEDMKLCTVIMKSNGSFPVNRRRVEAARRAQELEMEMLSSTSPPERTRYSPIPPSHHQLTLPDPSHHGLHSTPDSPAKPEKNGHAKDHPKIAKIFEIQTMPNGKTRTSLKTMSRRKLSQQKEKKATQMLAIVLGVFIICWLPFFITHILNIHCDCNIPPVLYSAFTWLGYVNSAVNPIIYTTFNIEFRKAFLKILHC
- experiment: biochemical
In this section we review reported pKi values for a set of compounds.
In plain terms, pKi is the concentration in mol/L turned into minus its base-10 logarithm.

Solved entries:
COc1c(C(=O)N[C@@H]2CCN(Cc3ccccc3)C2)cc(I)c2ccccc12 (stereo in doubt; 3h); 7.22
COc1cc(N)c(Cl)cc1C(=O)N[C@H]1CCN(Cc2ccccc2)C[C@@H]1C (stereo in doubt); 8.07
COc1cc(N)c(Cl)cc1C(=O)N[C@H]1CCN(Cc2ccccc2)C[C@@H]1C (stereo in doubt; 3a); 6.33
COc1c(C(=O)N[C@H]2CN(Cc3ccccc3)C[C@H]2C)cc(Br)c2ccccc12 (stereo in doubt); 6.54
CNc1cc(OC)c(C(=O)N[C@H]2CN(Cc3ccccc3)C[C@H]2C)cc1Cl (stereo in doubt); 8.64
COc1c(C(=O)NCC[C@@H]2CCN(Cc3ccccc3)C2)cc(Br)c2ccccc12 (stereo in doubt; 3l); 5.70
COc1c(C(=O)N[C@H]2CN(Cc3ccccc3)C[C@H]2C)cc(Br)c2ccccc12 (stereo in doubt; 3f); 6.70

Below: the item to evaluate.
Q: Provide pKi value for the following compound: COc1c(C(=O)N[C@@H]2CCN(Cc3ccccc3)C2)cc(I)c2ccccc12 (stereo in doubt)
Ans: 6.72
